# System: MCF7
# METHOD DESCRIPTION: NCI tumour cell line growth inhibition, 48 h
Activity calls are given as the source filed them. Cut-off read from the data, not from the text of the source: active = GI50 up to about 1.1 µM and inactive = higher.
Pick one and only one: Yes = active, No = inactive

Example cases with answers are listed next.
COMPOUND	CLASS
CCOC(=O)c1c(N)n(-c2ccccc2)c(=S)n(-c2ccccc2)c1=O	No
CCOc1ccc(C(=O)/C=C2/Nc3ccccc3N/C2=C/C(=O)c2ccc(OCC)cc2)cc1	No
COC1OC2COC(=O)c3cc(O)c(O)c(O)c3-c3c(cc(O)c(O)c3O)C(=O)OC2C(O)C1O (stereo not given)	No
CCOC(=O)c1cc2c(ccc3cc(C(=O)OCC)[nH]c32)[nH]1	No

Now turn to the next compound.
query: Call for entry C/C(=N\NC(=S)Nc1ccc(C)cc1)c1nc2cccnc2[nH]1 :
result: Yes

---

# System: SF-295
# METHOD DESCRIPTION: NCI tumour cell line growth inhibition, 48 h
Activity calls are given as the source filed them. Rule as the data show it: active = GI50 up to about 1.1 µM and inactive = higher.
VALUE KIND: GI50

Please review the following examples before continuing.
MOLECULE	VALUE KIND	RESULT
CC(=O)/C=C1/C(=O)C(CC(C)C)=C1CC(C)C	GI50	> 100 µM (inactive)
Clc1ccc(-c2nnc3c4nnc(-c5ccc(Cl)cc5Cl)n4c4ccccc4n23)c(Cl)c1	GI50	> 100 µM (inactive)
CCCCN(CCCC)CCC(O)c1cc2c(Cl)cc(Cl)cc2c2cc(C(F)(F)F)ccc12 (stereo unspecified)	GI50	12.4 µM (inactive)
CC(C)C[P+](c1ccccc1)(c1ccccc1)c1ccccc1	GI50	13.2 µM (inactive)
O=[N+]([O-])c1cc2[nH]nnc2c2nonc12	GI50	31.7 µM (inactive)

query: Give its GI50 value. Item: OC1(c2ccccc2)CSC2=Nc3ccccc3C3CCN1N23 (stereo unspecified)
result: 6.47 µM (inactive)

query: Give its GI50 value. Item: CN(C)/C=C/c1nnc([N+](=O)[O-])s1
result: 13.8 µM (inactive)

query: Give its GI50 value. Item: Cc1ccc(C(=O)CC2(O)C(=O)Nc3c(C)cc(Cl)cc32)cc1 (stereo unspecified)
result: > 100 µM (inactive)

query: Give its GI50 value. Item: CC(Oc1ccc(OCC2CCCCC2)cc1)C(N)=O (stereo unspecified)
result: > 100 µM (inactive)

query: Give its GI50 value. Item: C[Si](C)(C)/C(Br)=C\CCN1C(=O)CCC1O (stereo unspecified)
result: > 100 µM (inactive)

query: Give its GI50 value. Item: O=C(N/N=C\c1cccc(O)c1)c1ccncc1
result: > 100 µM (inactive)

---

# Tested on: PC-3
# METHOD DESCRIPTION: NCI tumour cell line growth inhibition, 48 h
Activity calls are given as the source filed them. No stated cut-off is given here; in the data, active = GI50 up to about 1.1 µM and inactive = higher. Where a SMILES comes first, the peptide text is derived from it. The star is where a group is joined. Boc = CC(C)(C)OC(=O)*; Bn = c1ccc(C*)cc1
# Lookup of reported GI50 keyed by entry

COMPOUND	GI50
Cc1c([C@H](C)[C@@H]2NC[C@@H](C)C[C@H]2O)ccc2c1C[C@H]1[C@H]2CC=C2C[C@@H](O)CC[C@@]21C	11.5 µM (inactive)
CCCNC(=O)c1cc(OC)c(OC)cc1NC(=O)C12CC3CC(CC(C3)C1)C2	17.3 µM (inactive)
CC(=O)N[C@@H](Cc1ccc(O)cn1)C(=O)NC1CCCCC1	> 100 µM (inactive)
CCOC(=O)Cc1csc2[n+]1C(=O)/C(=C/c1cccc(OC)c1O)S2	40.8 µM (inactive)
c1csc(C(NC2=NCCO2)C2CC2)c1 (stereo not given)	> 100 µM (inactive)

query: Give its GI50 value. Item: CCOC(=O)C1=CC(C)(C(=O)OCC)Nc2c(nc(OC)[nH]c2=O)N1 (stereo not given)
result: > 10 µM (inactive)

query: Give its GI50 value. Item: CCOC(=O)c1cc2c(ccc3cc(C(=O)OCC)[nH]c32)[nH]1
result: > 100 µM (inactive)

query: Give its GI50 value. Item: Cc1ccc2c(c1)C(=O)C1(C2)Cc2cccc(C)c2C1=O (stereo not given)
result: > 100 µM (inactive)

query: Give its GI50 value. Item: COC(=O)C(CC(C)C)NC(=O)C(C)NC(=O)C(Cc1ccc(OCc2ccccc2)cc1)NC(=O)C(COCc1ccccc1)NC(=O)OC(C)(C)C (stereo not given) (Boc-S(Bn)Y(Bn)AL-OMe; configuration not given here)
result: > 100 µM (inactive)

query: Give its GI50 value. Item: COc1cccc(-c2nc(-c3cnccn3)n(COCCO)n2)c1
result: > 100 µM (inactive)

query: Give its GI50 value. Item: C=C1c2nc3ccccc3n2C=C(c2ccc(OC)cc2)N1c1ccc(OCCN2CCCCC2)cc1
result: 15.2 µM (inactive)

query: Give its GI50 value. Item: C=CCCCC1SC2=C(CC)CCCN2C1=O (stereo not given)
result: 45.2 µM (inactive)

query: Give its GI50 value. Item: O=C(OCC1CCCN2CCCCC12)c1cccnc1 (stereo not given)
result: > 100 µM (inactive)
